All values here come from patent US20030148956A1.

Target: T1, corticotropin releasing factor 2 receptor
T1 sequence (Q13324 whole entry, species assumed, looked up): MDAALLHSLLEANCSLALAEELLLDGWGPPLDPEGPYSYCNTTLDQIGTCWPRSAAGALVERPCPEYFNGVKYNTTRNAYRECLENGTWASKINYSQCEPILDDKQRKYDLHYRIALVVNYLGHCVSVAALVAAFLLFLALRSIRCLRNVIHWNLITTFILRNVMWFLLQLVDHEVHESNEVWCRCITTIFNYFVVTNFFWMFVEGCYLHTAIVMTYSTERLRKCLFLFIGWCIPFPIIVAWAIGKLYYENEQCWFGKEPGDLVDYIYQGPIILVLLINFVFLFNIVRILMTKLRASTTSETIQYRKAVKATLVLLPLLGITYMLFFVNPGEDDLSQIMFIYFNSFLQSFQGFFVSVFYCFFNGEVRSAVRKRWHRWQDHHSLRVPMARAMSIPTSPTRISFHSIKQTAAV
Experiment: cell-based or functional assay
Ends that are not written are not given here.
measured.endpoint: CRF2R Emax % (%)
Answers are plain numbers, in %.

Example entries begin here.
{"binder": "ZGPPISIDLPWWLLRKMIEIEKQEKEKQQAANNRLLLDTI (C-terminal amide) [SEQ ID NO 216]", "measure.unit": "%", "reported.value": 90}
{"binder": "ZGPPISIDLPLQLLEKMIEIEKQEKEKQQAANNALLLATI (C-terminal amide) [SEQ ID NO 249]", "measure.unit": "%", "reported.value": 92}
{"binder": "ZGPPISIDLPLHLLRKMIEIEKQEKEKQQATTNARLLDRV (C-terminal amide) [SEQ ID NO 239]", "measure.unit": "%", "reported.value": 100}
{"binder": "DNPSLSIDLPLLLLRTLLELEKTQSQRERAEQNAQIFAHV-NH2 [SEQ ID NO 324]", "measure.unit": "%", "reported.value": 100}
{"binder": "ZGPPISIDVPYQLLRKVIEIEKQEKEKQQAANNARLLDTI (C-terminal amide) [SEQ ID NO 374]", "measure.unit": "%", "reported.value": 91}
{"binder": "ZGPPISIDLPIILLRKVIEIEKQEKEKQQAANNRLLLDTI (C-terminal amide) [SEQ ID NO 297]", "measure.unit": "%", "reported.value": 88.3}
{"binder": "DNPSLSIDLPQYLLRTLLELARTQSQRERAEQNAIIFASV-NH2 [SEQ ID NO 339]", "measure.unit": "%", "reported.value": 47.9}
{"binder": "PSLSIDLPLFLLRTLLELEKTQSQRERAEQNARIFARV-NH2 [SEQ ID NO 331]", "measure.unit": "%", "reported.value": 100}

For each of the binders below, note its CRF2R Emax %.
1. DNPSLSIDLPLLLLRTLLELEKTQSQRERAEQNANIFANV-NH2 [SEQ ID NO 326]
2. NDDPPISIDLPFFLLRNMIEMARIENEREQAGLNAKYLAEV-NH2 [SEQ ID NO 264]
3. HHHHHHIVLSLDVPIGLLQILLEQARARAAREQATTNARILARN-NH2 [SEQ ID NO 296]
4. NDDPPISIDLPFYLLRNMIEMARIENEREQAGLNAKYLAEV-NH2 [SEQ ID NO 261]

### Response
[100, 66.3, 65, 95.3]
